Cited source: patent US12071423B2

# TEST_METHOD_NOTES: Solubility in 10 mmol acetate, citrate or phosphate buffer (excess solid equilibrated at RT overnight, HPLC)
# Assay type: physicochemical
# CONDITIONS: 10 mmol acetate buffer, pH 5.71, aqueous buffer, thermodynamic from solid; Acetate buffer, pH (before) 5.71; free base eq.; all added solute went into solution; read-out: Solubility (Free Base eq. mg/mL)
# Protocol: Lasmiditan acetate was discovered to enable a desired dose target of about 50 mg in the minimal volume of less than or equal to about 1 mL, while at the same time achieving a desired target pH being close to neutral, and in addition being relatively isotonic and physically and chemically stable. […] Excess solid is equilibrated at RT overnight, and solution concentration is analyzed by HPLC and solid was characterized by XRPD. […]
REPORTED_PROPERTY: solubility

Documented solubility of CC(=O)O.CN1CCC(C(=O)c2cccc(NC(=O)c3c(F)cc(F)cc3F)n2)CC1 [Lasmiditan Acetate] : > 486 mg/mL

* * *

# TEST_METHOD_NOTES: Solubility in 10 mmol acetate, citrate or phosphate buffer (excess solid equilibrated at RT overnight, HPLC)
# Assay type: physicochemical
# CONDITIONS: 10 mmol acetate buffer, pH 4.05, aqueous buffer, thermodynamic from solid; Acetate buffer, pH (before) 4.05; free base eq.; all added solute went into solution; read-out: Solubility (Free Base eq. mg/mL)
REPORTED_PROPERTY: solubility

Documented solubility of CC(=O)O.CN1CCC(C(=O)c2cccc(NC(=O)c3c(F)cc(F)cc3F)n2)CC1 [Lasmiditan Acetate] : > 430 mg/mL

* * *

# TEST_METHOD_NOTES: Solubility in 10 mmol acetate, citrate or phosphate buffer (excess solid equilibrated at RT overnight, HPLC)
# Type: physicochemical
# CONDITIONS: 10 mmol citrate buffer, pH 2.5, aqueous buffer, thermodynamic from solid; Citrate buffer, pH (before) 2.5; free base eq.; all added solute went into solution; read-out: Solubility (Free Base eq. mg/mL)
REPORTED_PROPERTY: solubility

Documented solubility of CC(=O)O.CN1CCC(C(=O)c2cccc(NC(=O)c3c(F)cc(F)cc3F)n2)CC1 [Lasmiditan Acetate] : > 300 mg/mL

* * *

# TEST_METHOD_NOTES: Solubility in 10 mmol acetate, citrate or phosphate buffer (excess solid equilibrated at RT overnight, HPLC)
# Type: physicochemical
# CONDITIONS: 10 mmol citrate buffer, pH 3.84, aqueous buffer, thermodynamic from solid; Citrate buffer, pH (before) 3.84; free base eq.; all added solute went into solution; read-out: Solubility (Free Base eq. mg/mL)
REPORTED_PROPERTY: solubility

Documented solubility of CC(=O)O.CN1CCC(C(=O)c2cccc(NC(=O)c3c(F)cc(F)cc3F)n2)CC1 [Lasmiditan Acetate] : > 300 mg/mL

* * *

# TEST_METHOD_NOTES: Solubility in 10 mmol acetate, citrate or phosphate buffer (excess solid equilibrated at RT overnight, HPLC)
# Assay type: physicochemical
# CONDITIONS: 10 mmol citrate buffer, pH 4.99, aqueous buffer, thermodynamic from solid; Citrate buffer, pH (before) 4.99; free base eq.; all added solute went into solution; read-out: Solubility (Free Base eq. mg/mL)
REPORTED_PROPERTY: solubility

Documented solubility of CC(=O)O.CN1CCC(C(=O)c2cccc(NC(=O)c3c(F)cc(F)cc3F)n2)CC1 [Lasmiditan Acetate] : > 300 mg/mL

* * *

# TEST_METHOD_NOTES: Solubility in 10 mmol acetate, citrate or phosphate buffer (excess solid equilibrated at RT overnight, HPLC)
# Assay type: physicochemical
# CONDITIONS: 10 mmol acetate buffer, pH 5.09, aqueous buffer, thermodynamic from solid; Acetate buffer, pH (before) 5.09; free base eq.; all added solute went into solution; read-out: Solubility (Free Base eq. mg/mL)
REPORTED_PROPERTY: solubility

Documented solubility of CC(=O)O.CN1CCC(C(=O)c2cccc(NC(=O)c3c(F)cc(F)cc3F)n2)CC1 [Lasmiditan Acetate] : > 430 mg/mL

* * *

# TEST_METHOD_NOTES: Solubility in 10 mmol acetate, citrate or phosphate buffer (excess solid equilibrated at RT overnight, HPLC)
# Assay type: physicochemical
# CONDITIONS: 10 mmol buffer (acetate, citrate or phosphate), pH 6.8, thermodynamic from solid; at close to neutral pH, without adjusting the pH; read-out: solubility
REPORTED_PROPERTY: solubility

Documented solubility of CC(=O)O.CN1CCC(C(=O)c2cccc(NC(=O)c3c(F)cc(F)cc3F)n2)CC1 [Lasmiditan Acetate] : > 50 mg/mL

* * *

# TEST_METHOD_NOTES: Solubility in 10 mmol acetate, citrate or phosphate buffer (excess solid equilibrated at RT overnight, HPLC)
# Format: physicochemical
# CONDITIONS: 10 mmol acetate buffer, pH 3.69, aqueous buffer, thermodynamic from solid; Acetate buffer, pH (before) 3.69; free base eq.; all added solute went into solution; read-out: Solubility (Free Base eq. mg/mL)
REPORTED_PROPERTY: solubility

Documented solubility of CC(=O)O.CN1CCC(C(=O)c2cccc(NC(=O)c3c(F)cc(F)cc3F)n2)CC1 [Lasmiditan Acetate] : > 441 mg/mL

* * *

# TEST_METHOD_NOTES: Solubility in 10 mmol acetate, citrate or phosphate buffer (excess solid equilibrated at RT overnight, HPLC)
# Type: physicochemical
# CONDITIONS: 10 mmol citrate buffer, pH 5.96, aqueous buffer, thermodynamic from solid; Citrate buffer, pH (before) 5.96; free base eq.; all added solute went into solution; read-out: Solubility (Free Base eq. mg/mL)
REPORTED_PROPERTY: solubility

Documented solubility of CC(=O)O.CN1CCC(C(=O)c2cccc(NC(=O)c3c(F)cc(F)cc3F)n2)CC1 [Lasmiditan Acetate] : > 300 mg/mL
